assay: chemical genetic growth profiling, strain panel (AID 1159580);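 further: tested at 20 µM; growth read once vehicle control cultures reached saturation at 30 °C; 1 = growth at the plate median or of vehicle wells; lower values mean less growth of the strain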; conditions: S. cerevisiae deletion strains, growth OD, locus YGR229C, strain SMI1
The campaign covered roughly 5,500 compounds. About 2,000 (36%) were called active. Roughly 18% stayed inconclusive and do not appear here. No stated cut-off is given here; in the data, active means normalized growth mostly below about 0.91 (no sharp cut-off); inconclusive means no clear call, values can overlap the other calls; inactive means mostly above about 0.92. Some of the results follow.
Pick from active, inactive when you respond.

For orientation, consider the following solved cases.
Q: Hi, do you know how CCOC(=O)c1c(SC)[nH]c2c(C(F)(F)F)cccc2c1=O came out in this test?
A: inactive

Q: Hi, do you know how CCN1CCC[C@H]1CNC(=O)c1c(O)c(Cl)cc(Cl)c1OC came out in this test?
A: inactive

Q: Hi, do you know how CC(C)C[C@H](NC(=O)C1OC1C(=O)O)C(=O)NCCCCN=C(N)N (stereo not given in full) came out in this test?
A: inactive

Continuing:
Q: Hi, do you know how COc1ccc(-c2coc3cc(OC)cc(O)c3c2=O)cc1 came out in this test?
A: inactive

Q: Hi, do you know how CC(=O)Oc1cc(-c2coc3cc(OC(C)=O)c(OC(C)=O)c(OC(C)=O)c3c2=O)cc(OC(C)=O)c1OC(C)=O came out in this test?
A: active

Q: Hi, do you know how CCOC(=O)CSc1nnc(-c2cc(C(C)(C)C)nn2Cc2cccc(C)c2)n1C1CCCCC1 came out in this test?
A: inactive

Q: Hi, do you know how CCCn1c(=O)[nH]c(=O)c2[nH]cnc21 came out in this test?
A: inactive

Q: Hi, do you know how CC(C)[C@]12O[C@H]1[C@@H]1O[C@@]13[C@@]1(C)CCC4=C(COC4=O)[C@@H]1C[C@@H]1O[C@@]13C2=O came out in this test?
A: inactive

* * *

experiment: chemical genetic growth profiling, strain panel (AID 1159580); details: S. cerevisiae deletion strains, growth OD, locus YPL055C, strain LGE1, hits give low values
The campaign covered roughly 5,500 compounds. About 2,000 (36%) were called active. About 18% were inconclusive and are not listed. Some of the results follow.
Catalogue of molecules with associated normalized growth
Give a plain numeric answer without units written out.

Q: For the molecule COc1cc([C@@H]2c3cc4c(cc3[C@H](O)[C@H]3COC(=O)[C@@H]23)OCO4)cc(OC)c1OC , what normalized growth is on record?
A: 1.02

Q: For the molecule CC1(NCC(O)COc2cccc3[nH]ccc23)CCC(C(C)(C)NC(=O)CBr)CC1 (centres undefined) , what normalized growth is on record?
A: 0.968

Q: For the molecule CC1(C)CC(=O)c2c(S(C)(=O)=O)sc(Br)c2C1 , what normalized growth is on record?
A: 0.924

Q: For the molecule Cc1cc(=O)c2c(o1)-c1c(cc(O)c(O)c1C(=O)O)OC2 , what normalized growth is on record?
A: 1.01

Q: For the molecule CC1(C)O[C@@H]2CC3C4C[C@H](F)C5=CC(=O)C=C[C@]5(C)[C@@]4(F)[C@@H](O)C[C@]3(C)[C@]2(C(=O)CO)O1 (some centres undefined) , what normalized growth is on record?
A: 0.996

Q: For the molecule CC(=O)O[C@H]1C[C@@]2(C)[C@H](c3ccoc3)OC(=O)[C@H]3O[C@]32[C@@]2(C)C1[C@]1(C)C(C[C@H]2OC(C)=O)C(C)(C)[C@H](OC(C)=O)C[C@@H]1OC(C)=O (some centres undefined) , what normalized growth is on record?
A: 0.964

Q: For the molecule COC(=O)c1cn(Cc2ccc(C(F)(F)F)cc2)cc(F)c1=O , what normalized growth is on record?
A: 0.921

Q: For the molecule O=C(O)/C=C(\CC(=O)O)C(=O)O , what normalized growth is on record?
A: 1.03

Q: For the molecule CC(C)(C)C(=O)N1CCN(c2ncccc2C(F)(F)F)CC1 , what normalized growth is on record?
A: 0.959

Q: For the molecule CC(=O)O[C@@H]1CC2C(C)(C)C(=O)CC[C@]2(C)C2CC[C@@]3(C)[C@H](c4ccoc4)OC(=O)C4OC43[C@@]21C (some centres undefined) , what normalized growth is on record?
A: 0.963

Continuing:
Q: For the molecule CC(=O)C1COc2ccc(C)cc2C1=O (centres undefined) , what normalized growth is on record?
A: 0.93

Q: For the molecule Cn1c(=O)c2[nH]c(C3CCCC3)nc2n(C)c1=O , what normalized growth is on record?
A: 1.02

Q: For the molecule CCOC(=O)c1ccc2oc3ccc(O)cc3c(=O)c2c1 , what normalized growth is on record?
A: 0.88

Q: For the molecule CN1CNc2c(c(=O)n(C)c(=O)n2C)C1 , what normalized growth is on record?
A: 0.953

Q: For the molecule COc1cc2c3cc1Oc1cc(ccc1O)C[C@@H]1c4c(cc(OC)c(O)c4Oc4ccc(cc4)C[C@@H]3N(C)CC2)CC[N+]1(C)C , what normalized growth is on record?
A: 1.04

Q: For the molecule Cn1nnnc1SCC1=C(C(=O)O)N2C(=O)C(NC(=O)C(O)c3ccccc3)C2SC1 (centres undefined) , what normalized growth is on record?
A: 1.07

* * *

Catalogue of molecules with associated normalized growth
test: chemical genetic growth profiling, strain panel (AID 1159580);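 further: tested at 20 µM; growth read once vehicle control cultures reached saturation at 30 °C; 1 = growth at the plate median or of vehicle wells; lower values mean less growth of the strain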; settings: S. cerevisiae deletion strains, growth OD, locus YMR307W, strain GAS1, hits give low values
Screen size: about 5,500 compounds; about 2,000 (36%) were called active. Another 18% or so got no clear call; they are omitted. The list shows a part of the results.

Q: For the molecule C=C1C2CC[C@@]3(C)[C@H](c4ccoc4)OC(=O)C[C@]13O[C@H]1CC(=O)C(C)(C)[C@H](C(O)C(=O)OC)[C@@]21C (stereo partly drawn) , what normalized growth is on record?
A: 1.01 (inactive)

Q: For the molecule COc1cc2c3cc1Oc1cc(ccc1O)C[C@@H]1c4c(cc(OC)c(O)c4Oc4ccc(cc4)C[C@@H]3N(C)CC2)CC[N+]1(C)C , what normalized growth is on record?
A: 1.06 (inactive)

Q: For the molecule C[C@@H]1CC[C@@]2(OC1)OC1C(O)C3C4CC[C@H]5C[C@H](O[C@@H]6O[C@H](CO)[C@H](O[C@@H]7O[C@H](CO)[C@@H](O)[C@H](O[C@@H]8OC[C@@H](O)[C@H](O)[C@H]8O)[C@H]7O[C@@H]7O[C@H](CO)[C@H](O)[C@H](O[C@@H]8O[C@H](CO)[C@@H](O)[C@H](O)[C@H]8O)[C@H]7O)[C@H](O)[C@H]6O)[C@H](O)C[C@]5(C)C4CC[C@]3(C)C1[C@@H]2C (stereo partly drawn) , what normalized growth is on record?
A: 0.13 (active)

Q: For the molecule Cc1cc(NC(=O)Nc2ccc3c(ccn3C)c2)sn1 , what normalized growth is on record?
A: 0.996 (inactive)

* * *

assay: chemical genetic growth profiling, strain panel (AID 1159580);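 further: tested at 20 µM; growth read once vehicle control cultures reached saturation at 30 °C; 1 = growth at the plate median or of vehicle wells; lower values mean less growth of the strain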; conditions: S. cerevisiae deletion strains, growth OD, locus YJL128C, strain PBS2, hits give low values
Out of some 5,500 compounds screened, about 2,000 (36%) were called active. About 18% were inconclusive and are not listed. This is one part of the list.
Catalogue of molecules with associated normalized growth
Give a plain numeric answer without units written out.

Worked cases, normalized growth given:
Q: For the molecule Cc1nc(-c2ccc(C(F)(F)F)cn2)[nH]c(=O)c1Cl , what normalized growth is on record?
A: 0.928

Q: For the molecule CC(C)c1ccc(-c2cc(=O)c3ccccc3o2)cc1 , what normalized growth is on record?
A: 0.86

Q: For the molecule O=C(NNC(=O)c1csc(-c2cccs2)n1)c1ccc(C(F)(F)F)cc1 , what normalized growth is on record?
A: 0.948

Continuing:
Q: For the molecule Cc1cc(C(=O)N(c2ccccc2)C(C)C2CC2)c(Cl)cc1Cl (stereo not given) , what normalized growth is on record?
A: 0.92

Q: For the molecule N#CCC(=O)c1cccc(CSc2ccccc2Cl)c1 , what normalized growth is on record?
A: 1.04

Q: For the molecule O=C(CSCc1nc(-c2ccc(Cl)cc2)cs1)N/N=C\c1cccs1 , what normalized growth is on record?
A: 0.924

Q: For the molecule Cc1ccc2c(c1)CCCN2CC(=O)N(c1ccccc1)C1CCCCC1 , what normalized growth is on record?
A: 0.932

Q: For the molecule O=C1c2ccccc2O[C@@H](c2ccccc2)[C@@H]1NCc1ccccc1 , what normalized growth is on record?
A: 0.874

Q: For the molecule CCCc1cnc(N2CCN(CC(=O)N(c3ccccc3)C3CCCCC3)CC2)nc1 , what normalized growth is on record?
A: 0.985

Q: For the molecule CC(O)(CNCc1ccc(Cl)cc1)CSc1ccccc1Cl (stereo not given) , what normalized growth is on record?
A: 1

* * *

test: chemical genetic growth profiling, strain panel (AID 1159580);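 further: tested at 20 µM; growth read once vehicle control cultures reached saturation at 30 °C; 1 = growth at the plate median or of vehicle wells; lower values mean less growth of the strain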; conditions: S. cerevisiae deletion strains, growth OD, locus YPL031C, strain PHO85, hits give low values
In all, about 5,500 compounds went through this assay and about 2,000 (36%) were called active. About 18% were inconclusive and are not listed. This is one part of the list.
Label Met when normalized growth < 0.9; otherwise Not met.

For orientation, consider the following solved cases.
Q: A record lists CC(C)c1ccc(-c2cc(=O)c3ccccc3o2)cc1 . Is its normalized growth below 0.9?
A: Met

Q: A record lists N#CCC(=O)c1cccc(CSc2ccccc2Cl)c1 . Is its normalized growth below 0.9?
A: Met

Q: A record lists COc1ccc(C2CC(c3ccccc3)=Nc3ccccc3S2)cc1OC (stereo unspecified) . Is its normalized growth below 0.9?
A: Not met

Q: A record lists CC(C)CSc1nnc(CSCc2nc(-c3ccc(Cl)cc3)cs2)n1C . Is its normalized growth below 0.9?
A: Not met

Q: A record lists CCn1nc(C)cc1-c1nnc(Sc2ncc([N+](=O)[O-])s2)n1C . Is its normalized growth below 0.9?
A: Not met

Continuing:
Q: A record lists CCC(C)COC(=O)/C=C/c1ccc(N=Cc2ccc(OC)cc2)cc1 (stereo unspecified) . Is its normalized growth below 0.9?
A: Met

Q: A record lists Clc1ccccc1N/N=C\Cc1nnnn1-c1ccccc1 . Is its normalized growth below 0.9?
A: Met

Q: A record lists N#CCCCCOc1ccc2c(=O)cc(-c3ccccc3)oc2c1 . Is its normalized growth below 0.9?
A: Not met

Q: A record lists O=C(NNC(=O)c1csc(-c2cccs2)n1)c1ccc(C(F)(F)F)cc1 . Is its normalized growth below 0.9?
A: Met

Q: A record lists O=C1c2ccccc2O[C@@H](c2ccccc2)[C@@H]1NCc1ccccc1 . Is its normalized growth below 0.9?
A: Met

Q: A record lists O=C(NCc1cccs1)c1csc(Cc2c(Cl)cccc2Cl)n1 . Is its normalized growth below 0.9?
A: Not met

Recorded values, source PubChem BioAssay AID1159580.
